# test-description: soluble on expression in E. coli; label from the status in PepcDB or PDB records
measurement-label: soluble on expression in E. coli

MGSDKIHHHHHHMKKAMVIINPTSGGEKALDYKEKLENKAKEYFEYVETKITEKALDATHFAEEASREQYDAVVVFGGDGTVNEVISGIDERDYIPKLGIIPGGTGNLITKLLEINQDIDGAIDELDFDLTNKIDIGKANDNYFGYIFSIGSLPEAIHNVEIEDKTKFGILTYAVNTMKSVMTDQVFNIKVETENGNYVGEASHVLVLLTNYFADKKIFEENKDGYANILILKDASIFSKLSVIPDLLKGDVVANDNIEYIKARNIKISSDSELESDVDGDKSDNLPVEIKVLAQRVEVFSKPKED :: not soluble
SNAKELIQNIIEESYTDSQFTLSVLSEKLDLSSGYLSIMFKKNFGIPFQDYLLQKRMEKAKLLLLTTELKNYEIAEQVGFEDVNYFITKFKKYYQITPKQYRE :: soluble
MRKLKMMLCVMMLPLVVVGCTSKQSVSQCVKPPPPPAWIMQPPPDWQTPLNGIISPSGNDWLEHHHHHH :: not soluble
GPGSMSINFSAPYLVTEMEEKVVTSLPSGDTASGSGESTASPPIVISAAVPYTEEEKKLLTEQLRRHQRQQSQGDDDSSWNETTLPFISSMVEKVLQLAAQNRESDSTKDSGSGDENKPQEKANATDDVAGADAVSKVDTFVEDNDYVLEQLRLQPWPFFTLPRLCEILADPYKYNSIGDKLRGEKLQSAIRRCVLVSAPLNCDVRNNSS :: not soluble
MIEYAALKFNVVSDPMSETAKKVIVGMSGGVDSSVSAWLLQQQGYQVEGLFMKNWEEDDGEEYCTAAADLADAQAVCDKLGIELHTVNFAAEYWDNVFELFLAEYKAGRTPNPDILCNKEIKFKAFLEFAAEDLGADYIATGHYVRRADVDGKSRLLRGLDSNKDQSYFLYTLSHEQIAQSLFPVGELEKPQVRKIAEDLGLVTAKKKDSTGICFIGERKFREFLGRYLPAQPGKIITVDGDEIGEHQGLMYHTLGQRKGLGIGGTKEGTEEPWYVVDKDVENNILVVAQGHEHPRLMSVGLIAQQLHWVDREPFTGTMRCTVKTRYRQTDIPCTVKALDDDRIKVIFDEPVAAVTPGQSAVFYNGEVCLGGGIIEQRLPLPV :: not soluble

For this sequence ( MGAFLDKPKMEKHNAQGQGNGLRYGLSSMQGWRVEMEDAHTAVIGLPSGLESWSFFAVYDGHAGSQVAKYCCEHLLDHITNNQDFKGSAGAPSVENVKNGIRTGFLEIDEHMRVMSEKKHGADRSGSTAVGVLISPQHTYFINCGDSRGLLCRNRKVHFFTQDHKPSNPLEKERIQNAGGSVMIQRVNGSLAVSRALGDFDYKCVHGKGPTEQLVSPEPEVHDIERSEEDDQFIILACDGIWDVMGNEELCDFVRSRLEVTDDLEKVCNEVVDTCLYKGSRDNMSVILICFPNAPKVSPEAVKKEAELDKYLECRVEEIIKKQGEGVPDLVHVMRTLASENIPSLPPGGELASKRNVIEAVYNRLNPYKNDDTDSTSTDDMWLEHHHHHH ), measured soluble on expression in E. coli is soluble

====

# test-description: soluble on expression in E. coli; label from the status in PepcDB or PDB records
measurement-label: soluble on expression in E. coli

MSLNQIYQLTKPKFINVKYQEEAIDQENHILIRPNYMAVCHADQRYYQGKRDPKILNKKLPMAMIHESCGTVISDPTGTYEVGQKVVMIPNQSPMQSDEEFYENYMTGTHFLSSGFDGFMREFVSLPKDRVVAYDAIEDTVAAITEFVSVGMHAMNRLLTLAHSKRERIAVIGDGSLAFVVANIINYTLPEAEIVVIGRHWEKLELFSFAKECYITDNIPEDLAFDHAFECCGGDGTGPAINDLIRYIRPQGTILMMGVSEYKVNLNTRDALEKGLILVGSSRSGRIDFENAIQMMEVKKFANRLKNILYLEEPVREIKDIHRVFATDLNTAFKTVFKWEEGHHHHHH :: soluble
MSTQPSHPSSSNDLDSSIGTARIEVVSVPVKPRNKFSTTPVKRVEMKKSKESDSVDKALKVKSSLDCMKLEKPAPTTCEMKAA :: soluble
